Tested on: 2.2.15 cells
Experiment: Cytotoxicity (TC50, median toxic concentration) in 2.2.15 cells
Type: cell-based
Where a SMILES comes first, the peptide text is derived from it. [ ]: non-standard residue; d: D form. The star is where a group is joined. Phe(4-NO2) = N[C@@H](Cc1ccc([N+](=O)[O-])cc1)C(=O)O; Phe(4-NH2) = Nc1ccc(C[C@H](N)C(=O)O)cc1; 4Abz = Nc1ccc(C(=O)O)cc1; Propionyl = CCC(=O)*; Bz = O=C(c1ccccc1)*
Please assign -1 whenever TC50 is at or above 100 µg/mL, and 1 whenever it is below.

Check out these entries, answers already filled in.
[
  {
    "Molecule": "CCC(=O)Nc1ccc(C(=O)N[C@@H](Cc2ccccc2)C(=O)N[C@@H](Cc2ccc([N+](=O)[O-])cc2)C(=O)OC)cc1 [Example 38] ({Propionyl-4Abz}-Phe-[Phe(4-NO2)]-OMe)",
    "Label Class": 1
  },
  {
    "Molecule": "O=C(N[C@@H](Cc1ccc([N+](=O)[O-])cc1)C(=O)N[C@@H](Cc1ccccc1)C(=O)O)c1ccccc1 [Example 88] (Bz-[Phe(4-NO2)]-Phe-OH)",
    "Label Class": -1
  },
  {
    "Molecule": "O=C(N[C@@H](Cc1ccc(O)cc1)C(=O)N[C@H](CO)Cc1ccccc1)c1ccc(Cl)cc1 [Example 19]",
    "Label Class": -1
  },
  {
    "Molecule": "O=C(N[C@@H](Cc1ccccc1)C(=O)N[C@@H](Cc1ccccc1)C(=O)O)c1ccccc1 [Example 86] (Bz-Phe-Phe-OH)",
    "Label Class": -1
  },
  {
    "Molecule": "CC(=O)Nc1ccc(C[C@H](NC(=O)[C@H](Cc2ccc(O)cc2)NC(=O)c2ccccc2)C(=O)[O-])cc1.[Na+] [Example 95] (Bz-Tyr-[Phe(4-NH2)](Ac)-OH)",
    "Label Class": 1
  }
]

In the following, a different molecule is considered.
Enquiry: Does the reported TC50 of CCCCOc1ccc(C[C@H](NC(=O)[C@H](Cc2ccccc2)NC(=O)c2ccccc2)C(=O)[O-])cc1.[Na+] [Example 74] stay below 100 µg/mL?
Return: -1

====

Test system: 2.2.15 cells
Assay: Cytotoxicity (TC50, median toxic concentration) in 2.2.15 cells
Type: cell-based
Where a SMILES comes first, the peptide text is derived from it. [ ]: non-standard residue; d: D form. The star is where a group is joined. Phe(4-NH2) = Nc1ccc(C[C@H](N)C(=O)O)cc1; Bz = O=C(c1ccccc1)*
Reported TC50 values follow for various compounds
Expressed in µg/mL, but write only the number.

[
  {
    "Compound": "COC(=O)[C@H](Cc1ccc(OC(C)=O)cc1)NC(=O)[C@H](Cc1ccc(NC(C)=O)cc1)NC(=O)c1ccc(C)cc1",
    "Target Or Test System": "2.2.15 cells",
    "Quantity": "TC50",
    "Experimental Result": 388.03
  },
  {
    "Compound": "CC(=O)Nc1ccc(C[C@H](NC(=O)c2ccccc2)C(=O)N[C@@H](Cc2ccccc2)C(=O)O)cc1 [Example 87] (Bz-[Phe(4-NH2)](Ac)-Phe-OH)",
    "Target Or Test System": "2.2.15 cells",
    "Quantity": "TC50",
    "Experimental Result": 43.11
  },
  {
    "Compound": "O=C(N[C@@H](Cc1ccc(O)cc1)C(=O)N[C@H](CO)Cc1ccccc1)c1ccccc1Cl",
    "Target Or Test System": "2.2.15 cells",
    "Quantity": "TC50",
    "Experimental Result": 346.68
  },
  {
    "Compound": "O=C(N[C@@H](Cc1ccc(O)cc1)C(=O)N[C@@H](Cc1ccccc1)C(=O)O)c1ccccc1 [Example 93, N-(N-benzoyl-L-tyrosyl)-L-phenylalanine] (Bz-Tyr-Phe-OH)",
    "Target Or Test System": "2.2.15 cells",
    "Quantity": "TC50",
    "Experimental Result": 577.35
  }
]

Enquiry: Name the reported TC50 value associated with the compound Nc1ccn([C@@H]2CS[C@H](CO)O2)c(=O)n1 [Example 3TC, Lamivudine, reference compound]
Return: 786.00

Enquiry: Name the reported TC50 value associated with the compound CN(C)CC(=O)Nc1ccc(C(=O)N[C@@H](Cc2ccccc2)C(=O)N[C@H](CO)Cc2ccccc2)cc1
Return: 37.04

Enquiry: Name the reported TC50 value associated with the compound CN(C)Cc1ccc(C(=O)N[C@@H](Cc2ccccc2)C(=O)N[C@H](CO)Cc2ccccc2)cc1
Return: 86.23

Enquiry: Name the reported TC50 value associated with the compound O=C(N[C@@H](Cc1ccc(O)cc1)C(=O)N[C@H](CO)Cc1ccccc1)c1ccc(F)cc1
Return: 396.81

Enquiry: Name the reported TC50 value associated with the compound COC(=O)[C@H](Cc1ccccc1)NC(=O)[C@H](Cc1ccccc1)N(C(C)=O)C(=O)c1ccccc1
Return: 451.20

Enquiry: Name the reported TC50 value associated with the compound O=C(N[C@@H](Cc1ccccc1)C(=O)N[C@H](CO)Cc1ccccc1)c1ccc(Cl)cc1
Return: 28.74

Enquiry: Name the reported TC50 value associated with the compound O=C(N[C@@H](Cc1ccc(O)cc1)C(=O)N[C@H](CO)Cc1ccccc1)c1ccccc1
Return: 28.74

Enquiry: Name the reported TC50 value associated with the compound COC(=O)[C@H](Cc1ccccc1)NC(=O)[C@H](Cc1ccccc1)NC(=O)c1ccc(NC(=O)CN(C)C)cc1
Return: 58.64

Enquiry: Name the reported TC50 value associated with the compound O=C(N[C@@H](Cc1ccc([N+](=O)[O-])cc1)C(=O)N[C@H](CO)Cc1ccccc1)c1ccccc1
Return: 53.42
